Quick note: these are pIC50 numbers for system: α-mannosidase (jack bean) (Canavalia ensiformis)
Sequence (C0HJB3 1-562 limits assumed): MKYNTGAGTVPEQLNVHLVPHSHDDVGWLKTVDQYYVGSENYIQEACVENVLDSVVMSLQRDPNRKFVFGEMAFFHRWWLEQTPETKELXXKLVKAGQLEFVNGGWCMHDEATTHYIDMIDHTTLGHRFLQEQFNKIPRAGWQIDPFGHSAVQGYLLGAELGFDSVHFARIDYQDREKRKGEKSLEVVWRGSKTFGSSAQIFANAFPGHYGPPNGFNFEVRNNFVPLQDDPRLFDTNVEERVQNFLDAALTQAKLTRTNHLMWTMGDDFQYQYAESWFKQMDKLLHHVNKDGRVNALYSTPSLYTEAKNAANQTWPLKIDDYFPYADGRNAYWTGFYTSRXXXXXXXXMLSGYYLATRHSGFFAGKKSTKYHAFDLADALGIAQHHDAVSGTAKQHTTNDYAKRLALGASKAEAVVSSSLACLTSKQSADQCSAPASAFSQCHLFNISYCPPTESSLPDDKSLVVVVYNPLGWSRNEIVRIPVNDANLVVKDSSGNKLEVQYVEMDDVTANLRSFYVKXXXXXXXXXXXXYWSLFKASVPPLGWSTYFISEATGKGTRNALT
Sequence (C0HJB3 563-981 limits assumed): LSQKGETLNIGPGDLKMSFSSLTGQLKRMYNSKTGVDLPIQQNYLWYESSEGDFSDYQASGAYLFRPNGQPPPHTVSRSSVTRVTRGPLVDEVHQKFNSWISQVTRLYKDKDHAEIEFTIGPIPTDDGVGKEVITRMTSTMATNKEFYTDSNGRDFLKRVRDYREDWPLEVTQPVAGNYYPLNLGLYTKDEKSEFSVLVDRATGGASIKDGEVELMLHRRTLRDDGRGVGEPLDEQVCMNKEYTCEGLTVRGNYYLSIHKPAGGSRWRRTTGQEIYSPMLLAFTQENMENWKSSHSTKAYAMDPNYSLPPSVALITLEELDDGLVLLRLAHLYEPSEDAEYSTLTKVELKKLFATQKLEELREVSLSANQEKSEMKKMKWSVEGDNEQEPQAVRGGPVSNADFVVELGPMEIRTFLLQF
Numbers only, as −log10 of the molar value.

{"columns": ["MOLECULE", "TGT", "pIC50"],
 "data": [
  ["OC[C@@H]1[C@@H](O)[C@@H](O)[C@H]2[C@H](O)CCCN21 [(VII)]", "α-mannosidase (jack bean) (Canavalia ensiformis)", 5.92]
]}

Moving on to the next molecule.
Measured pIC50, OC[C@H]1[C@@H](O)[C@@H](O)[C@H]2[C@H](O)CCCN21 [(VIII)] : 4.35
